Each recorded value in this set is attributed to patent US20140004128A1.

Biological target: recombinant human IL-18 (human, UniProt Q14116 37-193)
Experiment: cell-based or functional assay
parameter measured: IC50, IFNγ release KG-1 cell assay, human IL-18 (nM)
Answer in nM, number only, no unit symbol.

*Q* For the binder Antibody 3 IgG2 (antibody, V domains shown) VH: QVQLQQSGPRLVKPSQTLSLTCTVSGGSISSGGYYWSWIRQPAGKGLEWIGSIYYSGSTYYNPSLKSRVTISGDTPKNQFSLKLSSVTAADTAVYYCARTPAYDGDARADFFDVWGRGTLVTVSS VL: DIVMTQSPSTLSASVGDRVTITCRASQGISSWLAWYQQKPGRAPKVLIYKASTLESGVPSRFSGSGSGTDFTLTISSLQPEDFATYYCQQSLYPPWTFGQGTKLEIK , report IC50, IFNγ release KG-1 cell assay, human IL-18.
*A* 4.1
